Where do these numbers come from? They come from paper PMC12564223.

System: P. falciparum 3D7 (Chloroquine-sensitive)
Assay: Plasmodium falciparum growth inhibition assay (SYBR green I), 3D7 strain
Type: cell-based
Settings: 3D7, 72 h, read-out: IC50/Pf3D7
property label: IC50 (µM)
The figure you give is taken to be in µM; do not add the unit.

What the record says about COc1cc(C)c2c(=O)c3c(O)cc(OC)cc3oc2c1 [compound 27, lichexanthone] : IC50 is 33.4

Notebook: CC(=O)C1CCC2C3CC=C4CC(N)CCC4(C)C3CCC12C (stereo not shown) [compound 14, Holaphyllamine] , IC50 read as 49.5

Reported IC50 for CCN(CC)CCCC(C)Nc1ccnc2cc(Cl)ccc12 (stereo not shown) [Chloroquine, reference compound] was 0.045

Reported IC50 ( C[C@H]1[C@H]2CC[C@H]3[C@@H]4CC=C5C[C@@H](N(C)C)CC[C@]5(C)[C@H]4CC[C@]23CN1C [compound 5, Conessine] ) = 26
